# credit: patent US20190218553

Target: von Willebrand factor (VWF) (Homo sapiens, UniProt P04275 P04275:764-2813)
Assay: filter; Bmax 33%; 2 mM CaCl2, 37 C
Conditions: tags: factor VIII free, Haematologic Technologies Inc; label: 5'-32P
measuredMetric: pKd
Scale for pKd: -log10 of concentration given in mol/L; no unit attached.

**Q:** Endpoint output: pKd of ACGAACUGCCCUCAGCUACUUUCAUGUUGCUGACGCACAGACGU (ssRNA, mAmCmGrArAfCfUrGfCfCfCfUfCrArGfCfUrAfCfUfUfUfCrAfUrGfUfUrGfCfUrGrAfCrGfCrAfCrArGrAmCmGmU-idT) [T25 vrt4] . Value?
**A:** 8.23
